The reported numbers originate from ChEMBL document CHEMBL1145206.

system: MCF7R; experiment: MDR-reversal activity evaluated against the resistant human breast tumor cell line MCF7-R; format: functional; parameters: concentration or dose not given beside the values
Known Reduction of a selection of molecules
measure: Reduction (%)

molecule	numeric value
CC(=O)O[C@H]1C(=O)[C@]2(C)[C@@H](OC(=O)CCC3CCCC4CCCCC43)C[C@H]3OC[C@@]3(OC(C)=O)[C@H]2[C@H](OC(=O)C2CCCCC2)[C@]2(O)C[C@H](O)C(C)=C1C2(C)C (some centres not stated)	81
CC(=O)O[C@H]1C(=O)[C@]2(C)[C@@H](OC(=O)/C=C/c3ccc(C(=O)c4ccccc4)cc3)C[C@H]3OC[C@@]3(OC(C)=O)[C@H]2[C@H](OC(=O)c2ccccc2)[C@]2(O)C[C@H](OC(C)=O)C(C)=C1C2(C)C	99.7
CC(=O)O[C@H]1C(=O)[C@]2(C)[C@@H](OC(=O)c3ccc4ccccc4c3)C[C@H]3OC[C@@]3(OC(C)=O)[C@H]2[C@H](OC(=O)c2ccccc2)[C@]2(O)C[C@H](O)C(C)=C1C2(C)C	97.5
CC(=O)O[C@@]12CO[C@@H]1C[C@H](OC(=O)/C=C/c1ccc3ccccc3c1)[C@@]1(C)C(=O)[C@H](OC(=O)/C=C/c3ccc4ccccc4c3)C3=C(C)[C@@H](O)C[C@@](O)([C@@H](OC(=O)c4ccccc4)[C@H]21)C3(C)C	45
CC(=O)O[C@H]1C(=O)[C@]2(C)[C@@H](OC(=O)/C=C/c3ccc(C(=O)c4ccccc4)cc3)C[C@H]3OC[C@@]3(OC(C)=O)[C@H]2[C@H](OC(=O)c2ccccc2)[C@]2(O)C[C@H](O)C(C)=C1C2(C)C	99.8
CC(=O)O[C@H]1C(=O)[C@]2(C)[C@@H](OC(=O)/C=C/c3cccc4ccccc34)C[C@H]3OC[C@@]3(OC(C)=O)[C@H]2[C@H](OC(=O)c2ccccc2)[C@]2(O)C[C@H](O)C(C)=C1C2(C)C	96
CC(=O)O[C@@]12CO[C@@H]1C[C@H](O)[C@@]1(C)C(=O)[C@H](OC(=O)/C=C/c3ccc(C(=O)c4ccccc4)cc3)C3=C(C)[C@@H](O)C[C@@](O)([C@@H](OC(=O)c4ccccc4)[C@H]21)C3(C)C	95
CC(=O)O[C@H]1C(=O)[C@]2(C)[C@@H](OC(=O)/C=C/c3ccc4ccccc4c3)C[C@H]3OC[C@@]3(OC(C)=O)[C@H]2[C@H](OC(=O)c2ccccc2)[C@]2(O)C[C@H](OC(C)=O)C(C)=C1C2(C)C	99.3
CC(=O)O[C@@]12CO[C@@H]1C[C@H](OC(=O)CCc1ccc(C(=O)c3ccccc3)cc1)[C@@]1(C)C(=O)[C@H](OC(=O)CCc3ccc(C(=O)c4ccccc4)cc3)C3=C(C)[C@@H](O)C[C@@](O)([C@@H](OC(=O)c4ccccc4)[C@H]21)C3(C)C	99.7
CC(=O)O[C@H]1C(=O)[C@]2(C)[C@@H](OC(=O)CCc3cccc4ccccc34)C[C@H]3OC[C@@]3(OC(C)=O)[C@H]2[C@H](OC(=O)c2ccccc2)[C@]2(O)C[C@H](O)C(C)=C1C2(C)C	96
CC(=O)O[C@H]1C(=O)[C@]2(C)[C@@H](OC(=O)CNC(=O)c3ccc4ccccc4c3)C[C@H]3OC[C@@]3(OC(C)=O)[C@H]2[C@H](OC(=O)c2ccccc2)[C@]2(O)C[C@H](O)C(C)=C1C2(C)C	42
CC(=O)O[C@@]12CO[C@@H]1C[C@H](OC(=O)/C=C/c1ccc3ccccc3c1)[C@@]1(C)C(=O)[C@H](OC(=O)CCc3ccc(C(=O)c4ccccc4)cc3)C3=C(C)[C@@H](O)C[C@@](O)([C@@H](OC(=O)c4ccccc4)[C@H]21)C3(C)C	0
